Target system: TBK1 (Homo sapiens (Human), UniProt Q9UHD2)
Sequence (Q9UHD2 whole entry): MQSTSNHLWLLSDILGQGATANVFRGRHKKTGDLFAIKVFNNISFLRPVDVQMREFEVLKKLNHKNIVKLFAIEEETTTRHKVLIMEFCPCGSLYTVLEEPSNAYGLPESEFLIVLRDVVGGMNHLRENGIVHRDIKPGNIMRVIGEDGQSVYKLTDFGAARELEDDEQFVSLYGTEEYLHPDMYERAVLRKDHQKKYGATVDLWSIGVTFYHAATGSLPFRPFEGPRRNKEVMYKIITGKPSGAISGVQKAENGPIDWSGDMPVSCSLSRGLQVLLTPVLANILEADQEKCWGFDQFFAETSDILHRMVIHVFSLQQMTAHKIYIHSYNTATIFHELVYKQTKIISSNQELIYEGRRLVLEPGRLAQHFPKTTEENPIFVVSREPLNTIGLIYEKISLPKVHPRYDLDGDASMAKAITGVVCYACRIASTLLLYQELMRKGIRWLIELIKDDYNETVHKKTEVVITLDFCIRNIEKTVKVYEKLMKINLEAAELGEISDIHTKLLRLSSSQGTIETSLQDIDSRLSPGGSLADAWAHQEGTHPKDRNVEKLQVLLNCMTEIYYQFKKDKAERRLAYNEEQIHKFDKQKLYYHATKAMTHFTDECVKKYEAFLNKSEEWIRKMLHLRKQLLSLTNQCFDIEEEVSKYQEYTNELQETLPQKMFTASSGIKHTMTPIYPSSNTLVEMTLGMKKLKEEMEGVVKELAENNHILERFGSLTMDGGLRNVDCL
Protocol notes: TBK1 TR-FRET enzymatic assay
Readout name: IC50 (nM)

A selection of reference data follows.
Exam item: Item N#Cc1cc(-c2ncnc(Nc3ccc(N4CCN(C5COC5)CC4)cc3)n2)ccc1O[C@H]1CCN(C(=O)c2[nH]ncc2N)C[C@H]1F [Example 391] has what recorded IC50?
Marked response: 6

Exam item: Item N#Cc1cc(-c2ncnc(Nc3ccc(N4CCNCC4)c(F)c3)n2)ccc1O[C@H]1CCOC[C@H]1F [Example 298] has what recorded IC50?
Marked response: 4

Exam item: Item N#Cc1cc(-c2ncnc(Nc3ccc(N4CCN(C5COC5)CC4)cc3)n2)ccc1O[C@H]1CCN(C(=O)c2ccnn2CCO)C[C@H]1F [Example 448] has what recorded IC50?
Marked response: 54

Exam item: Item CN1CCN(C(=O)N(C)CCOc2ccc(-c3ncnc(Nc4ccc(N5CCN(C6COC6)CC5)cc4)n3)cc2C#N)CC1 [Example 603] has what recorded IC50?
Marked response: 466

(P) C[C@H]1CN(C2COC2)CCN1c1ccc(Nc2ncnc(-c3ccc(O[C@H]4CCN(C(=O)c5cnc[nH]5)CC4(F)F)c(C#N)c3)n2)cc1 [Example 259]
(Q) C[C@H](O)C(=O)N1CC[C@H](Oc2ccc(-c3ncnc(Nc4ccc(N5CCO[C@H](CO)C5)cc4)n3)cc2C#N)[C@H](F)C1 [Example 233]
(R) N#Cc1cc(-c2ncnc(Nc3ccc(N4CCN(C5COC5)CC4)cc3)n2)ccc1O[C@@H]1CN(C(=O)CO)C[C@H]1F [Example 193]
(S) C[C@H](O)C(=O)N1C[C@@H](F)[C@@H](Oc2ccc(-c3ncnc(Nc4ccc(N5CCN(C6COC6)CC5)cc4)n3)cc2C#N)C[C@@H]1C [Example 415]
(T) CC(C)(O)c1ccc(Nc2ncnc(-c3ccc(O[C@H]4CCN(C(=O)CO)C[C@H]4F)c(C#N)c3)n2)cn1 [Example 388]
Exam item: Parameters: sort_field (IC50), sort_dir (desc). Reply with the item labels sorted in the order that was asked for.
Marked response: S, R, T, P, Q

###

Target system: TBK1 (Homo sapiens (Human))
Protocol notes: TBK1 TR-FRET enzymatic assay
Readout name: IC50 (nM)

(a) N#Cc1cc(-c2ncnc(Nc3ccc(N4CCN(C5COC5)CC4)cc3)n2)ccc1O[C@H]1CCN(C(=O)Cn2cnnc2)C[C@H]1F
(b) N#Cc1cc(-c2ncnc(Nc3ccc(N4CCN(C5COC5)CC4)cc3)n2)ccc1O[C@H]1CCN(C(=O)C2CNC(=O)N2)C[C@H]1F (stereo partly drawn)
(c) CC(N)C(=O)N1CC[C@H](Oc2ccc(-c3ncnc(Nc4ccc(N5CCN(C6COC6)CC5)cc4)n3)cc2C#N)[C@H](F)C1 (stereo in doubt)
Exam item: Sort (3 compounds) by IC50: min first. Reply with the item labels sorted in the order that was asked for.
Marked response: b, c, a
(b: 3 nM, c: 20 nM, a: 37 nM)

###

Target system: hJAK2 (Homo sapiens (Human))
Sequence (O60674 whole entry): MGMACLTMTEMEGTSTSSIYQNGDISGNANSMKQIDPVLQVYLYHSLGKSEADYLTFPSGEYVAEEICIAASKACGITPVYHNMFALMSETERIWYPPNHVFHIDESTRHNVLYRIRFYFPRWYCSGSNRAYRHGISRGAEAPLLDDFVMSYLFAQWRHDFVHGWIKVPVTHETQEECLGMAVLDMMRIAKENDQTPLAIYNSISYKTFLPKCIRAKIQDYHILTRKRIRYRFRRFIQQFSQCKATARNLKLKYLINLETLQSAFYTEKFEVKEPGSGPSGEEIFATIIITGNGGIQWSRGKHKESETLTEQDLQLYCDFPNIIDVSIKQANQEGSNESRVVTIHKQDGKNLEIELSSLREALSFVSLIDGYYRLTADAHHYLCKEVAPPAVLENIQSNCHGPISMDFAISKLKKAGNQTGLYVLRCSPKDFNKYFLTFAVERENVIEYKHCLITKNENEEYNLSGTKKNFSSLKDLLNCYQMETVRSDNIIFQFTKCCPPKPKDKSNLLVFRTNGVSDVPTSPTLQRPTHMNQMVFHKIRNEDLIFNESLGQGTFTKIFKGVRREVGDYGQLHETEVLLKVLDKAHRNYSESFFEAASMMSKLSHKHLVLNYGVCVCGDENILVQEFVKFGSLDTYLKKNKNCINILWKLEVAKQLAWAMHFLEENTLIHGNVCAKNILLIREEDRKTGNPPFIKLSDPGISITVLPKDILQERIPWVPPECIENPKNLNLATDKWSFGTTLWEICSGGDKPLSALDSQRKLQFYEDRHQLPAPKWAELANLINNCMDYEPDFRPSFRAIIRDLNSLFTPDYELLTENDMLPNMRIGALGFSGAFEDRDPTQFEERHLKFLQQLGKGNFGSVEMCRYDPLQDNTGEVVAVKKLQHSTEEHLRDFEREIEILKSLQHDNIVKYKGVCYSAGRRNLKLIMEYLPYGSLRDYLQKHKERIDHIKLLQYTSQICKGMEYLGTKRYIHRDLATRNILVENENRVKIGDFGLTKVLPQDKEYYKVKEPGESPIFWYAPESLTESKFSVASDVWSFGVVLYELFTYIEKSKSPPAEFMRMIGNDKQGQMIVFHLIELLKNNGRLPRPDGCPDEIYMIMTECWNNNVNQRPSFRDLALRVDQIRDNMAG
pIC50: −log10 of the molar value.
Readout name: pIC50

A selection of reference data follows.
Exam item: Fill in the recorded pIC50 for this compound, with hJAK2 (Homo sapiens (Human)) as test system: C[C@H]1CN(C(=O)CO)CC(F)(F)[C@H]1Oc1ccc(-c2ncnc(Nc3ccc(N4CCN(C5COC5)CC4)cc3)n2)cc1C#N (relative stereo) [Example 430]
Marked response: 7.19

Exam item: Fill in the recorded pIC50 for this compound, with hJAK2 (Homo sapiens (Human)) as test system: C[C@H]1C[C@@H](Oc2ccc(-c3ncnc(Nc4ccc(N5CCN(C6COC6)CC5)cc4)n3)cc2C#N)CCN1C(=O)CO [Example 169]
Marked response: 6.64

Exam item: Fill in the recorded pIC50 for this compound, with hJAK2 (Homo sapiens (Human)) as test system: N#Cc1cc(-c2ncnc(Nc3ccc(N4CCN(C5COC5)CC4)cc3)n2)ccc1O[C@H]1CCN(C(=O)C(O)CO)C[C@H]1F (stereo partly shown) [Example 348]
Marked response: 6.79

Exam item: Fill in the recorded pIC50 for this compound, with hJAK2 (Homo sapiens (Human)) as test system: N#Cc1cc(-c2ncnc(Nc3ccc(N4CCN(C5COC5)CC4)cc3)n2)ccc1O[C@H]1CCN(C(=O)c2cn(CCO)nn2)C[C@H]1F [Example 376]
Marked response: 6.90

(A) CS(=O)(=O)CC(=O)N1CC[C@H](Oc2ccc(-c3ncnc(Nc4ccc(N5CCN(C6COC6)CC5)cc4)n3)cc2C#N)[C@H](F)C1 [Example 549]
(B) C[C@@H]1C[C@@H](Oc2ccc(-c3ncnc(Nc4ccc(N5CCN(C6COC6)CC5)cc4)n3)cc2C#N)CCN1C(=O)CO [Example 168]
(C) Cn1cc(C(=O)N2C[C@@H](F)[C@@H](Oc3ccc(-c4ncnc(Nc5ccc(N6CCN(C7COC7)CC6)cc5)n4)cc3C#N)C(C)(C)C2)nn1 [Example 441]
Exam item: List the 3 entries from lowest pIC50 to highest pIC50 value. Reply with the item labels sorted in the order that was asked for.
Marked response: B, A, C

###

Target system: IKKε (Homo sapiens (Human))
Sequence (Q14164 whole entry): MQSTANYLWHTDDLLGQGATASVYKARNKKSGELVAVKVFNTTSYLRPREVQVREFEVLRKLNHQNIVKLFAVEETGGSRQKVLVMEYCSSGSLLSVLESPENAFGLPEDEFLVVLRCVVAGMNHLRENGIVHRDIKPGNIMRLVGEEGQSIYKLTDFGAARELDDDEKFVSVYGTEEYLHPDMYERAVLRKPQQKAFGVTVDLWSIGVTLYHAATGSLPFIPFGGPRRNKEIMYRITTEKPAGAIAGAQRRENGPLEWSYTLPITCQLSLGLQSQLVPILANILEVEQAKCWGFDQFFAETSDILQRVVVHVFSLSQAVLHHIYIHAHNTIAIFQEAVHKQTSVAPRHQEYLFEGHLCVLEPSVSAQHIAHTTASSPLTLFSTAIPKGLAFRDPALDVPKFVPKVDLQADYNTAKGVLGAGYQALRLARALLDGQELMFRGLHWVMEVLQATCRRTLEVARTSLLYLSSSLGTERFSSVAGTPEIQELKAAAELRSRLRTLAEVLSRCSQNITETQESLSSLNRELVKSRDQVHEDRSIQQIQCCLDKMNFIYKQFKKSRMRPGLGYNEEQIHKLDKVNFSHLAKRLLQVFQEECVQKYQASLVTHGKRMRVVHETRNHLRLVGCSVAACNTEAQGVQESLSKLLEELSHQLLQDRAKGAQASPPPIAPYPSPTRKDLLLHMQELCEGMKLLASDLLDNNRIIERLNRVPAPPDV
Protocol notes: IKKε TR-FRET enzymatic assay
Type: biochemical
Condition description: TR-FRET, 2×Km ATP; geometric mean of minimum four determinations; read-out: IKKe IC50
Readout name: IC50 (nM)

(A) N#Cc1cc(-c2ncnc(Nc3ccc(N4CCN(C5COC5)CC4)cc3)n2)ccc1O[C@H]1CCN(C(=O)c2cocn2)C[C@H]1F
(B) N#Cc1cc(-c2ncnc(Nc3ccc(N4CCN(C5COC5)CC4)cc3)n2)ccc1O[C@H]1CCN(C(=O)CO)C[C@@H]1C(F)(F)F (relative stereo)
Exam item: Of the two listed items, which has the higher IC50? First: A Second: B Pick one and reply with its label.
Marked response: B

(I) N#Cc1cc(-c2ncnc(Nc3ccc(N4CCN(C5COC5)CC4)cc3)n2)ccc1O[C@H]1CCN(C(=O)c2cccc(=O)[nH]2)C[C@H]1F
(II) COCC(O)C(=O)N1CC[C@H](Oc2ccc(-c3ncnc(Nc4ccc(N5CCN(C6COC6)CC5)cc4)n3)cc2C#N)[C@H](F)C1 (stereo partly shown)
(III) COc1cc(Nc2ncnc(-c3ccc(O[C@H]4CCN(C(=O)[C@H](C)O)CC4(F)F)c(C#N)c3)n2)ccc1N1CCN(C2COC2)CC1
Exam item: Parameters: sort_field (IC50), sort_dir (desc). Reply with the item labels sorted in the order that was asked for.
Marked response: II, I, III

###

Target system: IKKε (Homo sapiens (Human))
Protocol notes: IKKε TR-FRET enzymatic assay
Type: biochemical
Condition description: TR-FRET, 2×Km ATP; geometric mean of minimum four determinations; read-out: IKKe IC50
pIC50: −log10 of the molar value.
Readout name: pIC50

A selection of reference data follows.
Exam item: Item Cc1cc(Nc2ncnc(-c3ccc(O[C@H]4CCN(C(=O)c5cn(C)nn5)C[C@H]4F)c(C#N)c3)n2)ccc1C1CCN(C)CC1 [Example 485] has what recorded pIC50?
Marked response: 9.00

Exam item: Item Cc1cc(Nc2ncnc(-c3ccc(N4C[C@H](O)C[C@@H]4C)c(C#N)c3)n2)ccc1N1CCN(C2COC2)CC1 [Example 534] has what recorded pIC50?
Marked response: 8.15

Exam item: Item C[C@H](O)C(=O)N1CC[C@H](Oc2ccc(-c3ncnc(Nc4scnc4CO)n3)cc2C#N)[C@H](F)C1 [Example 572] has what recorded pIC50?
Marked response: 7.68

Exam item: Item COc1cc(Nc2ncnc(-c3ccc(O[C@H]4CCN(C(=O)[C@@H]5CCC(=O)N5)C[C@H]4F)c(C#N)c3)n2)ccc1N1CCN(C2COC2)CC1 [Example 544] has what recorded pIC50?
Marked response: 9.00

(P) COCC(=O)N1CC[C@H](Oc2ccc(-c3ncnc(Nc4ccc(C5CCN(C=O)CC5)c(C)c4)n3)cc2C#N)[C@H](F)C1 [Example 492]
(Q) N#Cc1cc(-c2ncnc(Nc3ccc(N4CCN(C5COC5)CC4)cc3)n2)ccc1O[C@H]1CCN(C(=O)[C@@H]2COCCN2)C[C@H]1F [Example 475]
Exam item: Of the two listed items, which has the higher pIC50? First: P Second: Q Pick one and reply with its label.
Marked response: P

###

Target system: TBK1 (Homo sapiens (Human), UniProt Q9UHD2)
Protocol notes: TBK1 TR-FRET enzymatic assay;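 note: phosphorylation of a biotinylated Ser/Thr peptide by purified full-length recombinant TBK1, read by TR-FRET after 240 min at 25 °C, IC50 is the geometric mean of at least four runs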
Readout name: IC50 (nM)

A selection of reference data follows.
Exam item: Item N#Cc1cc(-c2ncnc(Nc3ccc(N4CCN(C5COC5)CC4)cc3)n2)ccc1O[C@H]1CCN(C(=O)c2cocn2)C[C@H]1F has what recorded IC50?
Marked response: 3

Exam item: Item CC(=O)NCC(=O)N1CCC(Oc2ccc(-c3ncnc(Nc4ccc(N5CCN(C6COC6)CC5)cc4)n3)cc2C#N)CC1 has what recorded IC50?
Marked response: 65

Exam item: Item N#Cc1cc(-c2ncnc(Nc3ccc(N4CCN(C5COC5)CC4)cc3)n2)ccc1O[C@H]1CCN(C(=O)c2cnc(N)[nH]2)C[C@H]1F has what recorded IC50?
Marked response: 5

(P) N#Cc1cc(-c2ncnc(Nc3ccc(N4CCN(C5COC5)CC4)cc3)n2)ccc1OCCNC(N)=O
(Q) C[C@H](O)C(=O)N1CC[C@H](Oc2ccc(-c3ncnc(Nc4ccc(N5CCN(C6COC6)C[C@@H]5C)cc4)n3)cc2C#N)[C@H](F)C1
Exam item: Of the two listed items, which has the higher IC50? First: P Second: Q Pick one and reply with its label.
Marked response: P
